Where do the numbers come from? From ChEMBL document CHEMBL3627612.

Let's look at some compounds and their measured IC50.
system: UniProt:P40763
Sequence (P40763 whole entry): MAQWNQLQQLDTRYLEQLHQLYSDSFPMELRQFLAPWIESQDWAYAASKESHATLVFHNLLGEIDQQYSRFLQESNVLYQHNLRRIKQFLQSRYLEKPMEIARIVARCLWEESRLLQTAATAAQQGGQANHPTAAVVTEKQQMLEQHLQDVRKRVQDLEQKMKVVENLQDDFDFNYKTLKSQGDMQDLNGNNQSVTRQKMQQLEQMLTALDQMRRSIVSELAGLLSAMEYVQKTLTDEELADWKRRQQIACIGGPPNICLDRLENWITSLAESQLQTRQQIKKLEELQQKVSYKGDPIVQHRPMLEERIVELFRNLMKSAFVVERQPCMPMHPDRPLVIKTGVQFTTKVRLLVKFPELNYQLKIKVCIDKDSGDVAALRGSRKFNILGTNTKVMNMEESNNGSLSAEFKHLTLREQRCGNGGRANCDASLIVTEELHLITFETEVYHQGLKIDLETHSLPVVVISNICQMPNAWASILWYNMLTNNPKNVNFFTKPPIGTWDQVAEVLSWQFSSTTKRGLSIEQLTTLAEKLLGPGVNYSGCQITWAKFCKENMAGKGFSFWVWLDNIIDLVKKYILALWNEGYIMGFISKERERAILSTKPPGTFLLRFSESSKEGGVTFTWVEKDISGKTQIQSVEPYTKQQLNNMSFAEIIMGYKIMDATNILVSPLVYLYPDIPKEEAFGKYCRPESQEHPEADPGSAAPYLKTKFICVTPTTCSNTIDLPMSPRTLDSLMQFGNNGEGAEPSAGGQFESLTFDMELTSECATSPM
procedure text: Inhibition of Stat3 dimer DNA binding activity in human U251MG cells nuclear extract after 1.5 hrs by EMSA using radiolabeled probe hSIE
State just the number; it will be interpreted in nM.

These recorded examples may help you get a feel for the data.
smiles structure | system | IC50 / nM
C/C=C(\C)C(=O)O[C@H]1C[C@@H](C)[C@]2(OC)CC[C@](C)(/C=C3/OC(=O)C(COC(C)=O)=C31)O2 | UniProt:P40763 | 3200
C/C=C(\C)C(=O)O[C@H]1C[C@@H](C)[C@]2(O)CC[C@](C)(/C=C3/OC(=O)C(COC(C)=O)=C31)O2 | UniProt:P40763 | 2200

Next up:
Item under review: C/C=C(\C)C(=O)OCC1=C2/C(=C\[C@@]3(C)CC[C@](O)(O3)[C@H](C)C[C@@H]2O)OC1=O . Reported IC50?
2600
